The measurements presented in this section are drawn from patent US9382228B2.

target: unphosphorylated PDGFRβ kinase (uPDGFRβ, Seq. ID No. 3) (Homo sapiens); experiment: biochemical; conditions: uPDGFRb, enzymatic assay, ATP 500 μM
pIC50: −log10 of the molar value.
Assign pIC50 to each entry below.

q: Give the reported pIC50 for this compound. CCOC(C)(C)C(=O)NC(=O)Nc1ccc(Oc2ccnc(-c3cnn(C)c3)c2)cn1
a: 6.00 to 7.00

q: Give the reported pIC50 for this compound. COCCCC(=O)NC(=O)Nc1ccc(Oc2ccnc(-c3cnn(C)c3)c2)c(C)n1
a: < 6.00

q: Give the reported pIC50 for this compound. COC(C)(C)C(=O)NC(=O)Nc1ccc(Oc2ccnc(-c3ccnc(C)c3)c2)cn1
a: < 6.00

q: Give the reported pIC50 for this compound. CCn1cc(-c2cc(Oc3ccc(NC(=O)NC(=O)C(C)(C)C)nc3C)ccn2)cn1
a: < 6.00

q: Give the reported pIC50 for this compound. COC1(C(=O)NC(=O)Nc2ccc(Oc3ccnc(-c4ccc(C)nc4)c3)cn2)CC1
a: 7.00 to 8.00

q: Give the reported pIC50 for this compound. CC(C)C(=O)NC(=O)Nc1ccc(Oc2ccnc(-c3ccc(C4CCN(C)CC4)cc3)c2)cn1
a: 6.00 to 7.00

q: Give the reported pIC50 for this compound. CC(C)(C)C(=O)NC(=O)Nc1ccc(Oc2ccnc(-c3cncnc3)c2)cn1
a: < 6.00

q: Give the reported pIC50 for this compound. Cc1ccc(-c2cc(Oc3ccc(NC(=O)NC(=O)C(C)C)nc3C)ccn2)cn1
a: < 6.00

----------
Assign IC50 to each entry below.
biological target: unphosphorylated PDGFRβ kinase (uPDGFRβ, Seq. ID No. 3) (Homo sapiens); assay: biochemical; conditions: IC50 (nM) uPDGFRβ, Table 3
The figure you give is taken to be in nM; do not add the unit.

q: Give the reported IC50 for this molecule. Cc1ncc(-c2cc(Oc3ccc(NC(=O)NC(=O)C(C)(C)C)nc3)ccn2)s1
a: 922

q: Give the reported IC50 for this molecule. Cc1cc(-c2cc(Oc3ccc(NC(=O)NC(=O)C(C)(C)C)nc3C)ccn2)ccn1
a: 2800

q: Give the reported IC50 for this molecule. Cn1cc(-c2cc(Oc3ccc(NC(=O)NC(=O)CC4CCOCC4)nc3)ccn2)cn1
a: 168

q: Give the reported IC50 for this molecule. Cc1cn(-c2cc(Oc3ccc(NC(=O)NC(=O)C(C)(C)C)nc3)ccn2)cn1
a: 366

----------
Assign pIC50 to each entry below.
target: unphosphorylated PDGFRβ kinase (uPDGFRβ, Seq. ID No. 3) (Homo sapiens, UniProt P09619); test: biochemical; conditions: uPDGFRb, enzymatic assay, ATP 500 μM
Sequence (P09619 557-1106): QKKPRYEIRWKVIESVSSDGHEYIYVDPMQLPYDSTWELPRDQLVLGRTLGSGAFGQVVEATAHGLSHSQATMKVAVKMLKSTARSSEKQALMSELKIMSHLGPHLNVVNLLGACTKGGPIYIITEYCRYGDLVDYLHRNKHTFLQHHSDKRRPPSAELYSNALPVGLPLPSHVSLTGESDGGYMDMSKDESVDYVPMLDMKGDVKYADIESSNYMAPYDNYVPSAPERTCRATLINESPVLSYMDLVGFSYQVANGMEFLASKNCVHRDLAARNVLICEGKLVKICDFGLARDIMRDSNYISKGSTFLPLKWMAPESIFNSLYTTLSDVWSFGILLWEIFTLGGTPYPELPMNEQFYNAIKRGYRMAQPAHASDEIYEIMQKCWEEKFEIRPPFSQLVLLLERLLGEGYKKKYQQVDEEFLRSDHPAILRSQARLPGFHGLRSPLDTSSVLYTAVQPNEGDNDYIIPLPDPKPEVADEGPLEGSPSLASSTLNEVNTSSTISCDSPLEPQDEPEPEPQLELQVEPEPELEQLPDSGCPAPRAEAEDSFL
pIC50: −log10 of the molar value.

q: For unphosphorylated PDGFRβ kinase (uPDGFRβ, Seq. ID No. 3) (Homo sapiens, UniProt P09619), give the measured pIC50 of the entry CCC(C)(C)C(=O)NC(=O)Nc1ccc(Oc2ccnc(-c3cnn(C)c3)c2)c(C)n1 [Example 69]
a: 6.00 to 7.00

q: For unphosphorylated PDGFRβ kinase (uPDGFRβ, Seq. ID No. 3) (Homo sapiens, UniProt P09619), give the measured pIC50 of the entry Cc1ccc(-c2cc(Oc3ccc(NC(=O)NC(=O)C4CCOC4)nc3)ccn2)cn1 (stereo not drawn) [Example 89]
a: < 6.00

q: For unphosphorylated PDGFRβ kinase (uPDGFRβ, Seq. ID No. 3) (Homo sapiens, UniProt P09619), give the measured pIC50 of the entry CCOC(C)(C)C(=O)NC(=O)Nc1ccc(Oc2ccnc(-c3cnn(C)c3)c2)c(C)n1 [Example 127]
a: 6.00 to 7.00

q: For unphosphorylated PDGFRβ kinase (uPDGFRβ, Seq. ID No. 3) (Homo sapiens, UniProt P09619), give the measured pIC50 of the entry COC(C)(C)C(=O)NC(=O)Nc1cc(C)c(Oc2ccnc(-c3cnn(C)c3)c2)c(C)n1 [Example 140]
a: 6.00 to 7.00

q: For unphosphorylated PDGFRβ kinase (uPDGFRβ, Seq. ID No. 3) (Homo sapiens, UniProt P09619), give the measured pIC50 of the entry Cn1cc(-c2cc(Oc3ccc(NC(=O)NC(=O)C4(C(F)(F)F)CC4)nc3)ccn2)cn1 [Example 33]
a: 7.00 to 8.00

q: For unphosphorylated PDGFRβ kinase (uPDGFRβ, Seq. ID No. 3) (Homo sapiens, UniProt P09619), give the measured pIC50 of the entry CCC(C)(C)C(=O)NC(=O)Nc1ccc(Oc2ccnc(-c3cnn(C)c3)c2)cn1 [Example 63]
a: 6.00 to 7.00

q: For unphosphorylated PDGFRβ kinase (uPDGFRβ, Seq. ID No. 3) (Homo sapiens, UniProt P09619), give the measured pIC50 of the entry Cc1nc(NC(=O)NC(=O)C(C)(C)C#N)ccc1Oc1ccnc(-c2cnn(C)c2)c1 [Example 29]
a: < 6.00

q: For unphosphorylated PDGFRβ kinase (uPDGFRβ, Seq. ID No. 3) (Homo sapiens, UniProt P09619), give the measured pIC50 of the entry Cn1cc(-c2cc(Oc3ccc(NC(=O)NC(=O)C(C)(C)C#N)nc3)ccn2)cn1 [Example 30]
a: < 6.00

q: For unphosphorylated PDGFRβ kinase (uPDGFRβ, Seq. ID No. 3) (Homo sapiens, UniProt P09619), give the measured pIC50 of the entry Cn1cc(-c2cc(Oc3ccc(NC(=O)NC(=O)CC4CCOCC4)nc3)ccn2)cn1 [Example 4]
a: 6.00 to 7.00
